# tested-system: UniProt Q9UBY5
# Sequence (Q9UBY5 whole entry, species assumed): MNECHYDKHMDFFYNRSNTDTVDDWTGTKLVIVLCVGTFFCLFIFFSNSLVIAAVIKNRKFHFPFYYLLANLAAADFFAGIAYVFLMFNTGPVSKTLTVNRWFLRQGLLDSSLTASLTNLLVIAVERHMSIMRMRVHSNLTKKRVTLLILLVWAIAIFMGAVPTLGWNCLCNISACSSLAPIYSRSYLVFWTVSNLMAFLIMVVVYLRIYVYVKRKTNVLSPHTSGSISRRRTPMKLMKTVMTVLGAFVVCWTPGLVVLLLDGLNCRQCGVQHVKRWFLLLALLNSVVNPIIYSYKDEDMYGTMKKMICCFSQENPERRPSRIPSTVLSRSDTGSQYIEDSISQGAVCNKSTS
# test-description: Ca2+ transients in RH7777 cells expressing LPA3 (agonist / inhibition of LPA response)
# assay-conditions: read-out: LPA3 IC50; Table 5
pIC50: −log10 of the molar value.

{"columns": ["compound", "pIC50"],
 "data": [
  ["CCCCCCCCNC(=O)[C@H](COP(=O)(O)O)NC(=O)CCCCCCC [Cpd 19a]", 6.38],
  ["CCCCCCCC(=O)OC[C@H](COP(O)(O)=S)OC(=O)CCCCCCC", 7.96],
  ["CCCCCCCCNC(=O)[C@@H](COP(=O)(O)O)NC(=O)CCCCCCC [Cpd 19b]", 6.03],
  ["CCCCCCCCOC[C@@H](COP(O)(O)=S)OCCCCCCCC [Cpd 13a, dialkyl thiophosphatidic acid 8:0]", 6.74],
  ["CCCCCCCCOC[C@@H](COP(=O)(O)O)OCCCCCCCC [Cpd 12a]", 6.84],
  ["CCCCCCCCNC(=O)[C@H](COP(O)(O)=S)NC(=O)CCCCCCC [Cpd 20a]", 6.60],
  ["CCCCCCCCNC(=O)[C@@H](COP(O)(O)=S)NC(=O)CCCCCCC [Cpd 20b]", 6.52]
]}

----------
Recorded IC50 by entry
# tested-system: LPA2 (Homo sapiens)
# test-description: Ca2+ transients in RH7777 cells expressing LPA2 (agonist / inhibition of LPA response)
# assay-conditions: LPA2 (nM) IC50, Table 1

{"columns": ["compound", "IC50"],
 "data": [
  ["CCCCCCCC/C=C\\CCCCCCC[C@H]1OC[C@@H](COP(=O)(O)O)O1 [Analog 25]", "> 30000 nM"],
  ["CCCCCCCC/C=C\\CCCCCCC[C@H]1OC[C@H](COP(=O)(O)O)O1 [Analog 23]", "> 30000 nM"],
  ["CCCCCCCC/C=C\\CCCCCCC[C@@H]1OC[C@H](COP(=O)(O)O)O1 [Analog 21]", "> 30000 nM"]
]}

----------
# tested-system: UniProt Q92633
# test-description: Ca2+ transients in RH7777 cells expressing LPA1 (agonist / inhibition of LPA response)
# assay-conditions: read-out: LPA1 (Ki); Table 5
pKi: −log10 of the molar value.
Recorded pKi by entry

{"columns": ["molecule", "pKi"],
 "data": [
  ["CCCCCCCCNC(=O)[C@H](COP(O)(O)=S)NC(=O)CCCCCCC [Cpd 20a]", 6.82],
  ["CCCCCCCCOC[C@@H](COP(O)(O)=S)OCCCCCCCC [Cpd 13a, dialkyl thiophosphatidic acid 8:0]", 6.86],
  ["CCCCCCCC(=O)OC[C@@H](COP(=O)(O)O)OC(=O)CCCCCCC [Cpd 7a, (2S)-PA 8:0]", 6.66],
  ["CCCCCCCCNC(=O)[C@@H](COP(O)(O)=S)NC(=O)CCCCCCC [Cpd 20b]", 5.55],
  ["CCCCCCCCOC[C@@H](COP(=O)(O)O)OCCCCCCCC [Cpd 12a]", 6.31],
  ["CCCCCCCC(=O)OC[C@H](COP(O)(O)=S)OC(=O)CCCCCCC [Cpd 8b, (2R)-TPA 8:0]", 6.44]
]}

----------
# tested-system: LPA2 (Homo sapiens, UniProt Q9HBW0)
# Sequence (Q9HBW0 whole entry, species assumed): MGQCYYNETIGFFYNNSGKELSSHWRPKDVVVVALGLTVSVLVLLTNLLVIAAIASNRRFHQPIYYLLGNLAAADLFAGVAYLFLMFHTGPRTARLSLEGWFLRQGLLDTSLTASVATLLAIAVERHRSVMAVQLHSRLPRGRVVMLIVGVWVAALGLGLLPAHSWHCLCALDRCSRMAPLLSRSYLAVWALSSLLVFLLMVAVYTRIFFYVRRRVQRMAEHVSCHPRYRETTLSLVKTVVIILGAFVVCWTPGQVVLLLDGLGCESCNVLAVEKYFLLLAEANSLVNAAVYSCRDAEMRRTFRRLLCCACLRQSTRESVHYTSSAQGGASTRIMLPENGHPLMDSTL
# test-description: Ca2+ transients in RH7777 cells expressing LPA2 (agonist / inhibition of LPA response)
measured-endpoint: LPA2 agonist/antagonist activity in words

{"columns": ["molecule", "tested-system", "reported-result"],
 "data": [
  ["CCCCCCCCc1ccc(CCCCCCC2OCC(COP([O-])(O)=S)O2)cc1.[K+] (centres unmarked)", "LPA2 (Homo sapiens, UniProt Q9HBW0)", "no effect"],
  ["CCCCCCCC(=O)OC[C@@H](COP(=O)(O)O)OC(=O)CCCCCCC", "LPA2 (Homo sapiens, UniProt Q9HBW0)", "no effect"]
]}

----------
# tested-system: LPA1 (Homo sapiens)
# test-description: Ca2+ transients in RH7777 cells expressing LPA1 (agonist / inhibition of LPA response)
Recorded EC50 by entry

{"columns": ["molecule", "tested-system", "value-relation-sign", "EC50 (µM)"],
 "data": [
  ["CCCCCCCCCCCCC1OCC(COP(=O)(O)O)O1 (centres unmarked) [Analog 4]", "LPA1 (Homo sapiens)", ">", 30],
  ["CCCCCCCCc1ccc(CCCCCCCOP(=O)(O)O)cc1", "LPA1 (Homo sapiens)", "=", 21.5]
]}

----------
# tested-system: LPA2 (Homo sapiens, UniProt Q9HBW0)
# test-description: Ca2+ transients in RH7777 cells expressing LPA2 (agonist / inhibition of LPA response)
# assay-conditions: LPA2 EC50, *transient
Recorded EC50 by entry

{"columns": ["compound", "display-unit", "EC50"],
 "data": [
  ["CCCCCCCC/C=C\\CCCCCCCC1OCC(COP([O-])(O)=S)O1.[K+] (centres unmarked) [Analog 14]", "nM", 34],
  ["CCCCCCCCOC[C@H](COP(O)(O)=S)OCCCCCCCC [Cpd 13b, 2(R)-ATPA 8:0]", "nM", 1020],
  ["CCCCCCCC/C=C\\CCCCCCCC1OCC(COP(=O)([O-])O)O1.[K+] (centres unmarked) [Analog 13]", "nM", 68],
  ["CCCCCCCCOC[C@H](COP(=O)(O)O)OCCCCCCCC [Cpd 12b, (2R)-APA 8:0]", "nM", 2530],
  ["CCCCCCCCCCCCC1OCC(COP(=O)(O)O)O1 (centres unmarked) [Analog 12]", "nM", 1180]
]}

----------
Recorded EC50 by entry
# tested-system: LPA1 (Homo sapiens)
# test-description: Ca2+ transients in RH7777 cells expressing LPA1 (agonist / inhibition of LPA response)
# assay-conditions: LPA1 EC50
measured-endpoint: EC50 (nM)

{"columns": ["compound", "tested-system", "reported-result"],
 "data": [
  ["CCCCCCCCc1ccc(CCCCCCCOP(O)(O)=S)cc1", "LPA1 (Homo sapiens)", 4830],
  ["CCCCCCCC/C=C\\CCCCCCCC1OCC(COP([O-])(O)=S)O1.[K+] (centres unmarked)", "LPA1 (Homo sapiens)", 981]
]}

----------
Recorded EC50 by entry
# tested-system: LPA1 (Homo sapiens, UniProt Q92633)
# Sequence (Q92633 whole entry, species assumed): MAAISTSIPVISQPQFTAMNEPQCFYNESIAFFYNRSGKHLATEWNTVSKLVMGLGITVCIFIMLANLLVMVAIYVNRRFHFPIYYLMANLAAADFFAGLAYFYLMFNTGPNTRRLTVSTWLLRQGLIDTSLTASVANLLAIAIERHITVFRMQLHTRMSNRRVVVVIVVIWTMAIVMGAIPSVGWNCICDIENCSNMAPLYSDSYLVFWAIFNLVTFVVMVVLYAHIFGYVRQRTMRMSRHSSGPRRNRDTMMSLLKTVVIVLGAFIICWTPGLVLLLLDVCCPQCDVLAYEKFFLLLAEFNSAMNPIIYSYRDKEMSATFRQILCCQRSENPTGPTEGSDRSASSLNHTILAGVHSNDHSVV
# test-description: Ca2+ transients in RH7777 cells expressing LPA1 (agonist / inhibition of LPA response)
# assay-conditions: read-out: LPA1 EC50; Table 3

{"columns": ["molecule", "tested-system", "value-relation-sign", "EC50 (nM)"],
 "data": [
  ["CCCCCCCCCCCCC1OCC(COP(=O)(O)O)O1 (centres unmarked) [Analog 12]", "LPA1 (Homo sapiens, UniProt Q92633)", ">", 30000],
  ["CCCCCCCCC=CCCCCCCCC1OCC(COP([O-])(O)=S)O1.[K+] (centres unmarked) [Analog 38]", "LPA1 (Homo sapiens, UniProt Q92633)", "=", 2260]
]}

----------
# tested-system: UniProt Q9HBW0
# test-description: Ca2+ transients in RH7777 cells expressing LPA2 (agonist / inhibition of LPA response)
# assay-conditions: *transient
measured-endpoint: LPA2 effect in words

{"columns": ["compound", "measured-endpoint", "reported-result"],
 "data": [
  ["CCCCCCCCOC[C@H](COP(=O)(O)O)OCCCCCCCC [Cpd 12b, (2R)-APA 8:0]", "LPA2 effect in words", "Partial agonist"],
  ["CCCCCCCCOC[C@H](COP(O)(O)=S)OCCCCCCCC [Cpd 13b, 2(R)-ATPA 8:0]", "LPA2 effect in words", "Partial agonist"]
]}

----------
# tested-system: LPA1 (Homo sapiens, UniProt Q92633)
# test-description: Ca2+ transients in RH7777 cells expressing LPA1 (agonist / inhibition of LPA response)
# assay-conditions: read-out: LPA1 IC50; 200 nM LPA
pIC50: −log10 of the molar value.
measured-endpoint: pIC50

{"columns": ["molecule", "reported-result"],
 "data": [
  ["CCCCCCCCOC[C@@H](COP(O)(O)=S)OCCCCCCCC [Cpd 13a, dialkyl thiophosphatidic acid 8:0]", 6.48],
  ["CCCCCCCCOC[C@@H](COP(=O)(O)O)OCCCCCCCC [Cpd 12a]", 5.80],
  ["CCCCCCCCc1ccc(CCCCCCC2OCC(COP(=O)(O)O)O2)cc1 (stereo not drawn)", 5.33]
]}

----------
# tested-system: LPA1 (Homo sapiens, UniProt Q92633)
# test-description: Ca2+ transients in RH7777 cells expressing LPA1 (agonist / inhibition of LPA response)
# assay-conditions: read-out: LPA1 IC50; Table 5
measured-endpoint: IC50 (nM)

{"columns": ["compound", "reported-result"],
 "data": [
  ["CCCCCCCCNC(=O)[C@H](COP(O)(O)=S)NC(=O)CCCCCCC [Cpd 20a]", 476],
  ["CCCCCCCC(=O)OC[C@@H](COP(=O)(O)O)OC(=O)CCCCCCC [Cpd 7a, (2S)-PA 8:0]", 433],
  ["CCCCCCCCNC(=O)[C@@H](COP(O)(O)=S)NC(=O)CCCCCCC [Cpd 20b]", 7390],
  ["CCCCCCCCOC[C@@H](COP(O)(O)=S)OCCCCCCCC [Cpd 13a, dialkyl thiophosphatidic acid 8:0]", 328],
  ["CCCCCCCCOC[C@@H](COP(=O)(O)O)OCCCCCCCC [Cpd 12a]", 1580],
  ["CCCCCCCC(=O)OC[C@H](COP(O)(O)=S)OC(=O)CCCCCCC [Cpd 8b, (2R)-TPA 8:0]", 686]
]}
